tested on: OVCAR-5; test: NCI tumour cell line growth inhibition, 48 h
Calls of active or inactive are those of the source. No stated cut-off is given here; in the data, active = GI50 up to about 1.1 µM and inactive = higher.
Write down one outcome, taken from active, inactive

Prompt line: Can you look up the reported call for O=C(NC(=O)c1c(F)cccc1F)Nc1cccc(Oc2ncc(Cl)cn2)c1 for me?
Response line: inactive

Prompt line: Can you look up the reported call for CC(=O)NC1=C(C)C(=O)c2c(nc3n2CCC3OC(=O)CCl)C1=O (stereo not given) for me?
Response line: inactive

====

tested on: CAKI-1; assay: NCI tumour cell line growth inhibition, 48 h
Activity calls are given as the source filed them. Cut-off read from the data, not from the text of the source: active = GI50 up to about 1.1 µM and inactive = higher.
Write down one outcome, taken from label 1 = active, label 0 = inactive

Solved entries (count: 4):
CC1(C)[C@@H]2C[C@H]1c1cnc(-c3ccccn3)cc1C2CCCCC[C@@H]1c2cc(-c3ccccn3)ncc2[C@@H]2C[C@H]1C2(C)C (stereo not given in full)	label 1
C=C1C(=O)O[C@H]2C1C[C@H](O)/C(C)=C/CC[C@@]1(C)O[C@H]21 (stereo not given in full)	label 0
CCOCc1cc(=O)c2c(O)cc3c(c2o1)CCC(C)(C)O3	label 0
CC([C@H]1CCC2C3CCC4CC5(CC[C@]4(C)C3CC[C@@]21C)c1ccccc1C(=O)N5C)N(C)C (stereo not given in full)	label 0

Prompt line: Can you look up the reported call for Cc1cc(C)c(C2=NO[C@@H]3[C@H]2C(=O)C=C2N(Cc4ccccc4)CCO[C@@]23O)c(C)c1 for me?
Response line: label 1

====

tested on: OVCAR-3; test: NCI tumour cell line growth inhibition, 48 h
Calls of active or inactive are those of the source. Rule as the data show it: active = GI50 up to about 1.1 µM and inactive = higher.
Write down one outcome, taken from T (active), F (inactive)

Solved entries (count: 5):
CC(=O)/C(=C/NC(=S)c1cccnc1)C(=O)Nc1ccccc1C	F
CC(O)CCCCC(O)CCC[C@H](O)[C@H]1CCC([C@H]2CCC([C@@H](O)CCCCCCCCCCCCC3=C[C@H](C)OC3=O)O2)O1 (some centres undefined)	F
CCNC(=O)Nc1cccc(C)n1	F
Cc1ccccc1-c1nc2c(N)nc(N)nc2nc1N	F
NCCCCNCCCN1CC1	T

Prompt line: Can you look up the reported call for CNC1C(=O)C(C)C(O)(C(CC(C)C(O)/C=C/C=C/CNC(=O)C(C)(C)C(O)\C(C)=C/C=C\C=C\Cc2cnc(C)o2)OC)C12C(=O)OC2C.CNC1C(=O)C(C)C(O)(C(CC(C)C(O)/C=C/C=C/CNC(=O)C(C)(C)C(O)\C(C)=C/C=C\C=C\Cc2cnc(C)o2)OC)C12C(=O)OC2COC (centres undefined) for me?
Response line: F

Prompt line: Can you look up the reported call for Cc1noc(C)c1C1=CCCCc2ccccc21 for me?
Response line: F

Prompt line: Can you look up the reported call for CCOC(=O)c1cc(NC(=O)N(CCC#N)CCN(C(=O)N[C@@H](Cc2ccccc2)C(=O)N[C@@H](CC(C)C)C(=O)NC)c2ccccc2)ccc1OC for me?
Response line: F

Prompt line: Can you look up the reported call for CC(=O)c1cccc(NC(=O)C(=O)NNc2nnc(S)n2N)c1 for me?
Response line: F

====

Measured GI50 accompanies every entry in the list below.
system: MDA-N; test: NCI tumour cell line growth inhibition, 48 h
The source made the active and inactive calls. Rule as the data show it: active = GI50 up to about 1.1 µM and inactive = higher.

CCOC(=O)C(Cc1c(-c2[nH]c3ccccc3c2CC(NC(=O)CNC(C)=O)C(=O)OCC)[nH]c2ccccc12)NC(=O)CNC(C)=O (stereo not given)	> 100 µM (inactive)
O=C1OC(CN2CCN(c3ccccc3)CC2)CN1C(=S)Nc1ccccc1 (stereo not given)	> 100 µM (inactive)
Clc1ccc(N/N=C(\c2ccccc2)c2ccccn2)nc1	2.48 µM (inactive)
CC(C)C(C/C=C1/CC(CO)(COC(=O)CC(C(C)C)C(C)C)OC1=O)C(C)C (stereo not given)	11.5 µM (inactive)

GI50 reading for COc1ccc2nc3c(nc2c1)C(C)(C)C=C3c1ccc(Br)cc1 : > 100 µM (inactive)

GI50 reading for COCn1c2ccc(OC(C)=O)cc2c2c(=O)oc(C)nc21 : > 100 µM (inactive)

GI50 reading for O=C1C=CC2(C=C1)O[C@H](CCc1ccccc1)[C@@H](CCc1ccccc1)O2 : > 100 µM (inactive)

GI50 reading for Cc1ccc(NCCN(C)C)c2c(=O)c3cc(O)ccc3sc12 : 2.04 µM (inactive)

GI50 reading for CN(C)CCNc1ccc2ncnc3c2c1C(=O)c1ccccc1-3 : 0.456 µM (active)

GI50 reading for Cc1ccc(S(=O)(=O)NC(=O)NCC(=O)NCC(=O)O)cc1 : > 100 µM (inactive)
